# TARGET SYSTEM: T1, P. vivax Reticulocyte Binding Protein 2b, residues 161–1454 (P. vivax strain Salvador I, UniProt A5K736, DyLight 488 (NHS ester) in the FRET assay; biotin (BirA site) in the competition ELISA between human mAbs)
# T1 construct: PvRBP2b, P. vivax strain Salvador I, PlasmoDB PVX_094255 (total length 2806 amino acids), residues 161-1454; also called PvRBP2b_(161–1454); PvRBP2b; source: recombinant; expressed and purified in a similar manner as PvRBP2b161–470 (E. coli SHuffle T7; HisTrap, Q-Sepharose, size exclusion) or as previously described
# PROCEDURE SUMMARY: ELISA; avidity ELISA: plates coated with 50 ng PvRBP2b161–1454; human mAbs at 0.2 µg/mL; then PBS, 0.5, 1 or 2 M NH4SCN for 20 min; binding relative to no NH4SCN
# CONDITION INFO: both partners purified

- BINDER: "PvRBP2b human mAb 258259 (antibody, V domains shown, variable region as the Fab heavy chain in PDB 6WTV; cloned into a human IgG1 backbone, full-length antibody; lambda light chain; as the Fab light chain in PDB 6WTV; IgG1; same clonal group as 273264; source: Expi293 HEK cells, transfected, purified (Protein A, gel filtration)) VH: EVQLLESGGGLVRPGGSQRLSCAASGFTFTPYAMTWVRQAPGKGLEWLSTISGSGGSTYYADSVKGRFTISRDNSKNMLYLQMNSLTAEDTALYYCTKDKDEYTFGHNAFDVWGQGTMVTVSS VL: SYELTQAPSVSVAPGQTARITCGGDNIGRKTVNWYQQKPGQAPVLVIYYDNDRPSGIPERFSGSNSGNMATLSISRVEVGDEADYYCQVWDSNNDHPVFGGGTKLTVV"
  percent binding left at 1 M NH4SCN: "< 75%"
- BINDER: "PvRBP2b human mAb 253245 (antibody, V domains shown, variable region as the Fab heavy chain in PDB 6WTY; cloned into a human IgG1 backbone, full-length antibody; lambda light chain; as the Fab light chain in PDB 6WTY; IgG1; source: Expi293 HEK cells, transfected, purified (Protein A, gel filtration)) VH: EVQLVQSGAEVKKPGSSMKVSCKASGGTFNRYVFSWVRQAPGQGLEWMGGILPILETTYYAKNFKGRVTITADESTSTVYMELSSLTSEDTAVYFCARDEHDYVWGSYRPSLTGPWGQGTLVTVSS VL: QSALTQPPSTSGSPGQSVTISCTGTGIDVGGFSYVSWFQYHPGKAPKLIIFEVTKRPSGVPDRFSGSKSGNTASLTISGLQADDEAEYYCSSYAVNNNFVFGTGTKVTVL"
  percent binding left at 1 M NH4SCN: "> 75%"
